System: THRa homodimer (NR concentration 90 nM)
Test: PBM binding z-score (relative to random genomic background probes); higher = stronger binding; sequences stand for … in GC…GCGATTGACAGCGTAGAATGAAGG
Response key: T means PBM binding z-score >= 0.6; F means PBM binding z-score < 0.6.

Say whether TAGCCTAGGTAAGATCGGGCCAGTATACGCTATA shows PBM binding z-score of 0.6 or more.
F

Please tell me: is the sequence ACTAGCAGCCCAAGGGTCACTCAAGATTAGTCCG at or over 0.6 in terms of PBM binding z-score?
F

I'd appreciate it if you could say whether CGTCCAAGGTCAATGCTAGGTCAGTCAAAGCATT has PBM binding z-score at least equal to 0.6.
T

Quick check, PBM binding z-score >= 0.6? ATCGAAAGGTCGAGGTGAGTCTAGAGAAAGGGAA
T

Say whether ATCTCTAGGTAAGACTCAGTTCACTGAAGAACGC shows PBM binding z-score of 0.6 or more.
T

Tell me whether PBM binding z-score is at least 0.6 here: TCTAGCAGGCCAGAGGGGCACTCAAGAGGTACGG
F

Check the entry CAAACTAGGTCAAAGTCAAAGTCGGTTTGTGCCA : does PBM binding z-score equal or exceed 0.6?
T

Say whether CCTCGGAGAACAACAGGAGGTCAGAGCTGCCAGA shows PBM binding z-score of 0.6 or more.
T

Is PBM binding z-score for TGAATGAGGTCATAAGATCAGGGAACGTTGCAAA at or above 0.6?
T

Record TCTTGTAGATCAACAGGAGGCTAAGAAAGATCGA ; criterion: PBM binding z-score no lower than 0.6. Met?
F

In plain terms: is recorded PBM binding z-score at least 0.6 for TCTCGGAGGACACGAAAGGACAGAGCTCGACATC ?
T

Given the entry CAAACTAGGTCAGAGGTCAAAGTCGAGCCAACCA , answer whether its PBM binding z-score meets or surpasses 0.6.
T

* * *

Test system: LXRb homodimer (NR concentration 270 nM)
Experiment: PBM binding z-score (relative to random genomic background probes); higher = stronger binding; sequences stand for … in GC…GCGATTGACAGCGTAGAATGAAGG
EXPERIMENTAL_ENDPOINT: PBM binding z-score
Note: the reply should be a number with no unit written.

So for ATATGCAGGTTAGCTGGGGTCATTCAGACTAGGC , the logged PBM binding z-score turned out to be 0.363

// field: PBM binding z-score; key: ATGCCAAGGTGATCGTGAGGTCGTTGATACTAAC ; value = -0.844

// sample GCAGCTAGGTCAACTGATGGTCAGCTAAAGCTCG , its PBM binding z-score was -0.578

Summary for this sequence, CAAACTAGGTCACGTAAGGTCAAAGTCGAATGAC : PBM binding z-score is 2.27

The reported PBM binding z-score of the sequence CGAACTCGGTCATTGACAGGACAGTGAATAGTAA was -0.271

response.value for CCGACTGCGGCAGAAAGGTTACCATACCATCCGG (field: PBM binding z-score) = -0.692

Entry CCTACTGAGCCATCAGGTCATTGATATCAACGTT — recorded PBM binding z-score = 0.649

For record AGAATGAGGTTATTAAGATCAGAGAATTGCGGTC the listed PBM binding z-score is 0.109

Reported PBM binding z-score of TCATATAGGTAATACAGGTGGAAGTCGGCATCTA : 0.553

Item: CCTCGGAGGAGAGAAGGTCAGAGCTGTCCGCTTT | PBM binding z-score: -0.806

Summary for this sequence, ATCTCTAGGTAAAGATAATTCAGTGAATGCAAAT : PBM binding z-score is 0.372

Reported PBM binding z-score for CATACTGGGCCACGAAAGGTCATTGATTCAGTGA was 0.817

* * *

Please provide measured PBM binding z-score for the entries that follow.
System: RARa homodimer (NR concentration 270 nM)
Test: PBM binding z-score (relative to random genomic background probes); higher = stronger binding; sequences stand for … in GC…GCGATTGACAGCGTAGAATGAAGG
The answer should be a number; do not append a unit.

For CGACAAAGTTCAAGGTAACGTAACAGAAAGCAGC the sequence record lists PBM binding z-score as 1.06

Briefly, PBM binding z-score measured for TTAACAAGGTGAGCTGAGGTCGTTGATCCAACTC : -0.64

Per the records, this sequence ( AGAATGAGGTTAAGATCATGGAAACAGAATACAT ) has PBM binding z-score equal to 0.586

Record TCTTGTACATCAACAGGAGGTTAAGAAAGATCGA . Reported PBM binding z-score: 0.409

Per the records, this sequence ( GGACCGAGGGCAAAGTTGATAGCATCTGTCGACG ) has PBM binding z-score equal to -0.439

// PBM binding z-score lookup, sequence = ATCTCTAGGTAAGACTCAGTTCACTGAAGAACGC , result: 0.789

sequence ACTATTAGTAGAGACGAGGGCAACCGATAGGTTG , PBM binding z-score observed: 0.262

GET /value?item= ACTTACGCGTCAACGAGGTTATAGCACGCGTATA &field=PBM binding z-score returns 0.181

Lab note: CCTCGGCGGACAACAGGAGGTCAGAGCTGCCAGA gave PBM binding z-score of 0.119

According to the records, this sequence TAGCCTAGGTCATGCGGGCCAGTATGGTGTCGGC displays PBM binding z-score of -0.311

// PBM binding z-score lookup, sequence = TAGCCTAGGTCAGATCGGGCCAATATACGCTATA , result: -0.0136

The reported PBM binding z-score of the sequence GATACATGGTCAAGGCCAGAGTACGCGTATTGAT was -0.125

Documented PBM binding z-score of CATACAGGGCCAGCTAGGCCAGAGTAGGGACGGC : -0.751

PBM binding z-score reported for this sequence ATCGCTAGGTAAAGATAGTTCAGTGAATGCAAAT : 0.336

The reported value for TCGAGTAGGTTACCAATGGGGCATTAAGCTTTCT in terms of PBM binding z-score is -1.28

Note to self: PBM binding z-score recorded for ACTAGCAGGCCATGGGTCACTCAAGATTAGTCCG was -0.392

Please fill in: PBM binding z-score reported for CCTAGCAGGACAGGGTCACTCAAGCATTTCGCTT = 0.381

// field: PBM binding z-score; key: GCTAGCAGGACATTTGGGTCACTCAATGACGGGC ; value = -0.875

// TCTTGTAGATCAAAAGTTAAGAAAGCCGAAGCCT : PBM binding z-score value = -0.386

Entry under test: CCTTACGGGTAACTGACAGGTTATAGCATTTGGA . Its PBM binding z-score was 0.214

For CCTAGTTGGTCAGGAGGTCACACTCCGGATATGA the sequence record lists PBM binding z-score as 1.53

The sequence CCTACTGGGCCATTCAGAGGTCGTTGATCATATG showed PBM binding z-score equal to -0.226

Please fill in: PBM binding z-score reported for GCTTACGGGTCAAAGGCTATAGCATGAATAGAAT = -0.0609

Looking up TAGCCTAGGGCATGGGCCAGTATACCACGCGAAC , I see its PBM binding z-score listed as -0.519

Looking up GGAACGAGGGCAAGTTGATACCAGAGTTTGATGG , I found its PBM binding z-score recorded as 0.0477

The recorded PBM binding z-score for CATACAGGGTCAGCTAGGCCAGAGTCGGGACGGC is 0.539

# PBM binding z-score of CAAACTAGATCAAGAGGTCAAAGTCCGCTTCCCG = 1.44

// recorded PBM binding z-score for ACTATTAGATGACTTAGGGCAACCGATACGACGC : 1.38

Recorded result, GCGACTGGGGCAAAGCAGGTTTCCATAAGGTTGG , PBM binding z-score: -0.557

# sequence CATACAGGGTCAGCTAGGCCAGAGCAGGGACGGC ; its PBM binding z-score = 0.253

Field PBM binding z-score (entry TCCCGGAGGACACGAAAGGTCAGAGCTCGACATC ) reads 1.11

Form: sequence = CCTAGCTGGTCAGGAGGTCACACACCGGATATGA ; PBM binding z-score = 0.568

response.value for ATCGAAAGGTCGTGAGGTTAGTATACAGAAAGGC (field: PBM binding z-score) = 1.16

The sequence listed as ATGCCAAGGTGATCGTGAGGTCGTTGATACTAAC shows PBM binding z-score equal to -0.38

Lab note: measured PBM binding z-score of TTACCAAGGTGAAGGTCGATGATCCCTCTGTAGA was 0.0108

Record ATATCTAGGTTACATCCGGGTCATTCAGGCTATG , field PBM binding z-score: 1.99

Reported PBM binding z-score for CGTCCAAGGTTAGAGAGGTCAGTGAATGCCGAGT was 1.11

For reference, reported PBM binding z-score for TCTAGTGGGTCACGGAGGTCACACACGACGGGTA stands at 2.44

So for CTGCCAAGGTGAACAAGGTCGTTGATTACTATTC , the logged PBM binding z-score turned out to be -0.469

Field PBM binding z-score (entry CCTAGCAGGCCAGGGTCACTCAGGCATTTCGCTT ) reads -0.431

Reported PBM binding z-score for CCTTACGGGTCAAGGTTAAAGCACGGGTGGTACG was 1.39

Lab note: measured PBM binding z-score of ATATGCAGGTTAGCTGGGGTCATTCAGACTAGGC was 0.349

Value of measured PBM binding z-score for the entry ATATGTAGGTTAGCTGGTGTCATTCAGACTAGGC : 0.23

Reported PBM binding z-score for CCTCACGGGTCACTGACAGGTTATAGCATTTGGA was 0.868

Looking up ATCTCAAGGTAAAGTTCAGTGAAAGATCGATAGA , I see its PBM binding z-score listed as 1.65

The recorded PBM binding z-score for TCTATTAGTTGAGTAGGGCAACCGAAACAGCGGA is -0.221

# PBM binding z-score of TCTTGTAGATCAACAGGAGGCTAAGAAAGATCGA = -0.265

Documented PBM binding z-score of AATACAGGGTCATCCTAGGCCAGAGTACGCACAG : 1.41

The sequence listed as TTACCAAGGTGAGCTGAGGTCGTTTATCCAACTC has a reported PBM binding z-score of -1.08

Sample ATACCAAGGTGATCGTGAGATCGTTGATACTAAC ; PBM binding z-score observed: 0.462

According to the records, this sequence CGTCCAAGGTCATAGGAGGTAAGTGAAGACAGAT displays PBM binding z-score of 1.57

All values here come from the supplement of paper PMC6555819.
